Target: NDM-1 (Klebsiella pneumoniae, UniProt C7C422)
Sequence (C7C422 29-270 limits assumed): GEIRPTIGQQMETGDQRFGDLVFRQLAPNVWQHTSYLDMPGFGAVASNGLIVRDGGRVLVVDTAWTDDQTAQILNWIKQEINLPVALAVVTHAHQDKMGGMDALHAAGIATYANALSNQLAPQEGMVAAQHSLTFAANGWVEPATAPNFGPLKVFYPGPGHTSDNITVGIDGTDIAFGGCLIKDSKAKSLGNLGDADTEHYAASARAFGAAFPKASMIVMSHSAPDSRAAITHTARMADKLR
Measure name: Ki (nM)
Give bare numbers, in nM.

Some solved entries appear below for comparison.
Compound	Unit of measure	Ki
Cc1c(S(=O)(=O)Nc2scnc2C(=O)O)cnn1-c1ccccc1 [Compound 81]	nM	130
O=C(O)c1ccccn1 [Pyridine-2-carboxylic acid, pyridine-2-carboxylic acid, reference compound]	nM	3000
O=C(O)c1ncsc1NS(=O)(=O)CCc1cccnc1 [Compound 151]	nM	3200

Let us examine a further case.
QUERY: Determine from records and report Ki for N[C@@H](C(=O)N1CCC(c2ccc(S(=O)(=O)Nc3scnc3C(=O)O)cc2)CC1)c1ccccc1 [Compound 172]
RESULT: 220
